test system: E. coli EV36, T7 phage lysis inhibition, OD600; experiment: blocking T7-induced lysis of EV36 cultures – OD600, set 6, selectivity assay for bacterial capsule biogenesis inhibitor project, dose response (AID 652019)
Activity calls are given as the source filed them.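 How the source made its calls: active means compound whose activity held up on retesting over a range of doses, giving a fitted IC50; inactive means the rest.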
Entries and their IC50 values follow.

smiles.entry	obs.value
Nc1cnccc1NC(=O)c1ccc2ncsc2c1	> 50 µM (inactive)
Cc1cnccc1NC(=O)c1ccc2nc(N3CCCC3)sc2c1	> 50 µM (inactive)
Cc1nc2ccc(C(=O)Nc3ccncc3Br)cc2s1	> 50 µM (inactive)
CC(C)(C)OC(=O)Nc1nc2ccc(C(=O)Nc3ccnc(F)c3)cc2s1	1.16 µM

Exercise: Please indicate IC50 recorded for `CC(C)(C)OC(=O)Nc1nc2ccc(C(=O)Nc3ccncc3)cc2s1`
Solution: > 50 µM (inactive)

Exercise: Please indicate IC50 recorded for `Cc1nc2ccc(C(=O)Nc3ccnc(F)c3)cc2s1`
Solution: > 50 µM (inactive)

Exercise: Please indicate IC50 recorded for `Nc1ccncc1`
Solution: > 50 µM (inactive)
